conditions: 353.14 K; 101 kPa; Liquid; Vibrating tube method
± gives the expanded uncertainty stated by the source.
Endpoint: mass density
Quick note: unit goes after the number.

Here is how some molecules turned out for mass density.
NCCO
967.893 ± 0.23 kg/m3
C[S+](C)[O-] [dimethyl sulfoxide]
1040.54 ± 0.26 kg/m3
CN(CCO)CCO
994.404 ± 0.83 kg/m3

Indicate its recorded mass density; the molecule in question is OCCNCCO
1057.31 ± 0.28 kg/m3

----------
settings: 363.15 K; 101 kPa; Liquid; Vibrating tube method
mass density overview
The reply should be a number in kg/m3, with the unit left off.

CN(CCO)CCO
986.471
C[S+](C)[O-] [dimethyl sulfoxide]
1030.43
NCCO
959.536

Indicate its recorded mass density; the compound in question is OCCNCCO
1050.24
